# System: IL-8 secreted by human pulmonary artery endothelial cells (HPAEC)
# Measurement description: In vitro IL-8 assay: TNF-alpha-stimulated IL-8 secretion by HPAEC, ELISA
# Assay type: cell-based
# Condition details: Endothelial cell, 10 microM compound, 20 hrs preincubation, then 2 ng/ml TNF-alpha for 4 hrs
Parameter: inhibition at 10 µM. Scope: all listed entries.
Measured property: inhibition at 10 µM (%)

compound="Cc1cc2c(cc1O)C(C)(C)CC1(CC(C)(C)c3cc(OCCCO)c(C)cc3O1)O2 (racemic)" study_system="IL-8 secreted by human pulmonary artery endothelial cells (HPAEC)" measured_property="inhibition at 10 µM" reported_measurement=13
compound="Cc1cc2c(cc1O)C(C)(C)CC1(CC(C)(C)c3cc(OCCCn4cccn4)c(C)cc3O1)O2 (racemic)" study_system="IL-8 secreted by human pulmonary artery endothelial cells (HPAEC)" measured_property="inhibition at 10 µM" reported_measurement=0
compound="Cc1cc2c(cc1O)C(C)(C)CC1(CC(C)(C)c3cc(OC(C)(C)C(=O)O)c(C)cc3O1)O2 (racemic)" study_system="IL-8 secreted by human pulmonary artery endothelial cells (HPAEC)" measured_property="inhibition at 10 µM" reported_measurement=25
compound="Cc1cc(CO)n(CCCOc2cc3c(cc2C)OC2(CC(C)(C)c4cc(O)c(C)cc4O2)CC3(C)C)n1 (racemic)" study_system="IL-8 secreted by human pulmonary artery endothelial cells (HPAEC)" measured_property="inhibition at 10 µM" reported_measurement=5

All values here come from patent US20080280974A1.
